Test: Fraction unbound in human blood at 1000 ng/ml by equilibrium dialysis method
Format: ADME, tissue-based

| Smiles | fraction unbound at 1000 ng/ml |
| --- | --- |
| CCNC(=O)C[C@@H]1N=C(c2ccc(Cl)cc2)c2cc(OC)ccc2-n2c(C)nnc21 | 0.19 |

###

Assay: in vivo
Details: beagle, dog, iv, 1 mg/kg
Property Label: clearance at 1 h

| Smiles | Measured Value |
| --- | --- |
| CCNC(=O)C[C@@H]1N=C(c2ccc(Cl)cc2)c2cc(OC)ccc2-n2c(C)nnc21 | 5 mL/min/kg |

###

Assay: Fraction unbound in dog blood at 1000 ng/ml by equilibrium dialysis method
Format: ADME, tissue-based, Canis lupus familiaris
Property Label: fraction unbound at 1000 ng/ml

| Molecule | Measured Value |
| --- | --- |
| CCNC(=O)C[C@@H]1N=C(c2ccc(Cl)cc2)c2cc(OC)ccc2-n2c(C)nnc21 [MOLIBRESIB] | 0.24 |

###

Target: Bromodomain-containing protein 2 (Homo sapiens)

| Compound | IC50 (µM) |
| --- | --- |
| COc1ccccc1C1=NC(NC(=O)OCc2ccccc2)c2nnc(C)n2-c2ccccc21 (stereo unspecified) | 10 |
| Cc1nnc2n1-c1ccccc1C(c1ccccc1)=NC2NC(=O)CCc1ccccc1 (stereo unspecified) | 15.8 |
| Cc1nnc2n1-c1ccccc1C(c1ccccc1)=NC2NC(=O)Oc1cccc(F)c1 (stereo unspecified) | 3.16 |
| Cc1nnc2n1-c1ccc([N+](=O)[O-])cc1C(c1ccccc1)=NC2NC(=O)OCc1ccccc1 (stereo unspecified) | 12.6 |
| Cc1nnc2n1-c1ccccc1C(c1ccccc1)=NC2NS(=O)(=O)Cc1ccccc1 (stereo unspecified) | 31.6 |
| Cc1nnc2n1-c1ccccc1C(c1ccccc1)=NC2CC(=O)NCc1ccccc1 (stereo unspecified) | 2.51 |

###

Test: in vivo
Details: cynomolgus monkey, iv, 2 mg/kg
Property Label: clearance at 1 h (mL/min/kg)

| Smiles | Property Label | Measured Value |
| --- | --- | --- |
| CCNC(=O)C[C@@H]1N=C(c2ccc(Cl)cc2)c2cc(OC)ccc2-n2c(C)nnc21 | clearance at 1 h | 14 |

###

Assay: Volume of distribution in cynomolgus monkey at 2 mg/kg, iv and 5 mg/kg, po after 1 hr
Assay type: ADME, organism-based, Macaca fascicularis
Settings: in vivo

| Compound | Vd [L/kg] |
| --- | --- |
| CCNC(=O)C[C@@H]1N=C(c2ccc(Cl)cc2)c2cc(OC)ccc2-n2c(C)nnc21 [MOLIBRESIB] | 1.5 |

###

Test: Oral bioavailability in CD rat at 3 mg/kg after 1 hr
Type: ADME, organism-based
Settings: in vivo

| Smiles | Scale Unit | bioavailability |
| --- | --- | --- |
| CCNC(=O)C[C@@H]1N=C(c2ccc(Cl)cc2)c2cc(OC)ccc2-n2c(C)nnc21 | % | 27 |

###

Assay: Volume of distribution in Balb/c mouse at 1 mg/kg, iv and 3 mg/kg, po after 1 hr
Assay type: ADME, organism-based
Conditions: in vivo

| Molecule | Vd [L/kg] |
| --- | --- |
| CCNC(=O)C[C@@H]1N=C(c2ccc(Cl)cc2)c2cc(OC)ccc2-n2c(C)nnc21 [MOLIBRESIB] | 6.5 |

###

Experiment: physchem
Conditions: FaSSIF, pH 6.5
Description: Solubility of the compound in FaSSIF at pH 6.5 after 16 hrs by HPLC analysis
Classification field: enter true for solubility at 16 h values not below 100 µg/mL, false for values below it.

| Compound | Label Value |
| --- | --- |
| COc1ccc2c(c1)C(c1ccc(Cl)cc1)=N[C@@H](CC(=O)Nc1ccc(F)cc1)c1nnc(C)n1-2 | true |
| CCCCOC(=O)C[C@@H]1N=C(c2ccc(Cl)cc2)c2cc(OC)ccc2-n2c(C)nnc21 | true |
| COc1ccc2c(c1)C(c1ccc(Cl)cc1)=N[C@@H](CC(=O)O)c1nnc(C)n1-2 | true |
| COc1ccc2c(c1)C(c1ccc(Cl)cc1)=N[C@@H](CC(=O)NCC1CC1)c1nnc(C)n1-2 | true |
| COc1ccc2c(c1)C(c1ccc(Cl)cc1)=N[C@@H](CC(=O)Nc1ccccn1)c1nnc(C)n1-2 | true |
| CCNC(=O)C[C@@H]1N=C(c2cccc(F)c2)c2cc(OC)ccc2-n2c(C)nnc21 | true |
| COc1ccc2c(c1)C(c1ccc(Cl)cc1)=N[C@@H](CC(=O)Nc1cccnc1)c1nnc(C)n1-2 | false |
| COC(=O)C[C@@H]1N=C(c2ccc(Cl)cc2)c2cc(OC)ccc2-n2c(C)nnc21 | true |
| Cc1nnc2n1-c1ccccc1C(c1ccccc1)=NC2CC(=O)NCc1ccccc1 (centres undefined) | false |

###

Test: Oral bioavailability in beagle dog at 3 mg/kg after 1 hr
Type: ADME, organism-based, Canis lupus familiaris
Conditions: in vivo
Property Label: bioavailability (%)

| Compound | Property Label | Measured Value |
| --- | --- | --- |
| CCNC(=O)C[C@@H]1N=C(c2ccc(Cl)cc2)c2cc(OC)ccc2-n2c(C)nnc21 [MOLIBRESIB] | bioavailability | 44 |

###

Assay: Fraction unbound in mouse blood at 1000 ng/ml by equilibrium dialysis method
Type: ADME, tissue-based
Property Label: fraction unbound at 1000 ng/ml

| Smiles | Measured Value |
| --- | --- |
| CCNC(=O)C[C@@H]1N=C(c2ccc(Cl)cc2)c2cc(OC)ccc2-n2c(C)nnc21 | 0.21 |

###

Biological target: Bromodomain-containing protein 3 (Homo sapiens, UniProt Q15059)
Sequence (Q15059 whole entry): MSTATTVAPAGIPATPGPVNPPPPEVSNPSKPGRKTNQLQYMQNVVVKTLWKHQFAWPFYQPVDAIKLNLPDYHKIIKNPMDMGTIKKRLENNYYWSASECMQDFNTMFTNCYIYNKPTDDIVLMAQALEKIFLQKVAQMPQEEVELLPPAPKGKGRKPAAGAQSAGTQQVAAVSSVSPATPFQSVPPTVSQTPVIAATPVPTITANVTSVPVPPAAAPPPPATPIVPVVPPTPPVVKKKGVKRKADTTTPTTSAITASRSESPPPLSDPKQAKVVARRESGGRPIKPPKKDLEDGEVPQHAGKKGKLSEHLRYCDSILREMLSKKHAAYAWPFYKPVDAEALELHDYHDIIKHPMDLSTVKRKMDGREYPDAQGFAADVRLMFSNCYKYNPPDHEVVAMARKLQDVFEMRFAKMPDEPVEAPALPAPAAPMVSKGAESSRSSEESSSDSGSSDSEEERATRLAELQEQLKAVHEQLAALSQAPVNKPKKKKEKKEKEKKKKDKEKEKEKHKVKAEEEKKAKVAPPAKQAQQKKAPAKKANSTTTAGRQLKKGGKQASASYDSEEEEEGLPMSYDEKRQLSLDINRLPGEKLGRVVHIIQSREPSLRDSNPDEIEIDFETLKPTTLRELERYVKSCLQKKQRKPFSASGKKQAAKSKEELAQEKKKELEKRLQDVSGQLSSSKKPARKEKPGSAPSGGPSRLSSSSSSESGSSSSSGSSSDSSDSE
Property Label: IC50 (nM)

| Compound | Measured Target | Property Label | Measured Value |
| --- | --- | --- | --- |
| Cc1ccc2c(c1)-n1c(C)nnc1C(NC(=O)OCc1ccccc1)N=C2c1ccccc1 (stereo unspecified) | Bromodomain-containing protein 3 (Homo sapiens, UniProt Q15059) | IC50 | 1260 |
| Cc1nnc2n1-c1ccc(Cl)cc1C(c1ccccc1)=NC2NC(=O)OCc1ccccc1 (stereo unspecified) | Bromodomain-containing protein 3 (Homo sapiens, UniProt Q15059) | IC50 | 1580 |
| CCOC(=O)NC1N=C(c2ccc(Cl)cc2)c2ccccc2-n2c(C)nnc21 (stereo unspecified) | Bromodomain-containing protein 3 (Homo sapiens, UniProt Q15059) | IC50 | 1260 |
| Cc1nnc2n1-c1ccccc1C(c1ccccc1)=NC2NC(=O)CCc1ccccc1 (stereo unspecified) | Bromodomain-containing protein 3 (Homo sapiens, UniProt Q15059) | IC50 | 3160 |
| Cc1nnc2n1-c1ccccc1C(c1ccccc1)=NC2NC(=O)NCc1ccccc1 (stereo unspecified) | Bromodomain-containing protein 3 (Homo sapiens, UniProt Q15059) | IC50 | 794 |
| COc1ccc(C2=NC(NC(=O)OCc3ccccc3)c3nnc(C)n3-c3ccccc32)cc1 (stereo unspecified) | Bromodomain-containing protein 3 (Homo sapiens, UniProt Q15059) | IC50 | 1000 |
| Cc1ccc(C2=NC(NC(=O)OCc3ccccc3)c3nnc(C)n3-c3ccccc32)cc1 (stereo unspecified) | Bromodomain-containing protein 3 (Homo sapiens, UniProt Q15059) | IC50 | 1000 |
| Cc1nnc2n1-c1ccccc1C(c1ccccc1)=NC2CC(=O)NCc1ccccc1 (stereo unspecified) | Bromodomain-containing protein 3 (Homo sapiens, UniProt Q15059) | IC50 | 2000 |
| Cc1nnc2n1-c1ccccc1C(c1ccccc1)=NC2NC(=O)Oc1cccc(F)c1 (stereo unspecified) | Bromodomain-containing protein 3 (Homo sapiens, UniProt Q15059) | IC50 | 1260 |
| Cc1nnc2n1-c1ccccc1C(c1ccccc1)=NC2NC(=O)OCc1ccc(F)cc1 (stereo unspecified) | Bromodomain-containing protein 3 (Homo sapiens, UniProt Q15059) | IC50 | 1000 |
| COc1ccc2c(c1)C(c1ccccc1)=NC(NC(=O)OCc1ccccc1)c1nnc(C)n1-2 (stereo unspecified) | Bromodomain-containing protein 3 (Homo sapiens, UniProt Q15059) | IC50 | 794 |

###

Molecular target: Bromodomain-containing protein 2 (Homo sapiens, UniProt P25440)
Sequence (P25440 whole entry): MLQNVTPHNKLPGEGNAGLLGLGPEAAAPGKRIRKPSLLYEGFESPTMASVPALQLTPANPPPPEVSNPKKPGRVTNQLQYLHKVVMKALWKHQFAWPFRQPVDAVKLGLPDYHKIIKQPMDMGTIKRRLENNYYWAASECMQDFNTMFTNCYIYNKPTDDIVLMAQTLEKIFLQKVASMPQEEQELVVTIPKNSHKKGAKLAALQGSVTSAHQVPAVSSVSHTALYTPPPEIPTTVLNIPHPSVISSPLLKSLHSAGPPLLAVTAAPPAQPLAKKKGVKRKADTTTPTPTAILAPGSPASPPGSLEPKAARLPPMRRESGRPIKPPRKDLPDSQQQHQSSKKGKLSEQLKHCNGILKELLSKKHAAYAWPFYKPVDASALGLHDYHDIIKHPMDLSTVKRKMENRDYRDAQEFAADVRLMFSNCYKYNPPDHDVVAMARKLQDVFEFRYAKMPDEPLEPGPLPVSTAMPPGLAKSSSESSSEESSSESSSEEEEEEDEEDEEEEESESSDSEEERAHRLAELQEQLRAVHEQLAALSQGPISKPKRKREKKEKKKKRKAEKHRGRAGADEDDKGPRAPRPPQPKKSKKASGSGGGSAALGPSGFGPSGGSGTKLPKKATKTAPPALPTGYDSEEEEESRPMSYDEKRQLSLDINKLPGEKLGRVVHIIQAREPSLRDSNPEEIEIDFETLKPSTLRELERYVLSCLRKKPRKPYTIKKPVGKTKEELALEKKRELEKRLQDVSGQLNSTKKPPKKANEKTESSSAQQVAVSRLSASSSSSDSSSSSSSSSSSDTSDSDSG
Hi! Just check whether IC50 is below 2000 nM. Below gives criterion met, equal or above gives criterion not met.

| Compound | Label Value |
| --- | --- |
| Cc1ccc2c(c1)-n1c(C)nnc1C(NC(=O)OCc1ccccc1)N=C2c1ccccc1 (centres undefined) | criterion not met |
| CCOC(=O)NC1N=C(c2ccc(Cl)cc2)c2ccccc2-n2c(C)nnc21 (centres undefined) | criterion not met |
| COc1ccc2c(c1)C(c1ccccc1)=NC(NC(=O)OCc1ccccc1)c1nnc(C)n1-2 (centres undefined) | criterion met |
| COc1cccc(C2=NC(NC(=O)OCc3ccccc3)c3nnc(C)n3-c3ccccc32)c1 (centres undefined) | criterion not met |
| Cc1nnc2n1-c1ccc(Cl)cc1C(c1ccccc1)=NC2NC(=O)OCc1ccccc1 (centres undefined) | criterion not met |
| Cc1ccc(C2=NC(NC(=O)OCc3ccccc3)c3nnc(C)n3-c3ccccc32)cc1 (centres undefined) | criterion met |

###

Assay: AUC (0 to infinity) in cynomolgus monkey at 2 mg/kg, iv and 5 mg/kg, po after 1 hr
Assay type: ADME, organism-based, Macaca fascicularis
Settings: plasma

| Compound | AUC(0-inf) |
| --- | --- |
| CCNC(=O)C[C@@H]1N=C(c2ccc(Cl)cc2)c2cc(OC)ccc2-n2c(C)nnc21 [MOLIBRESIB] | 3340 ng·h/mL |
